protocol-summary: qHTS for compounds that reverse cellular toxicity of Amyloid beta (A-beta) peptide in yeast: LOPAC Validation Assay (AID 720559);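 also: plate controls were DMSO for no effect and equimolar ferric chloride plus clioquinol rescue for full effect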
protocol-conditions: yeast expressing A-beta; rescue of growth toxicity; series mostly up to 46.1 µM
Description: The A-beta peptide is produced by the processing of the amyloid precursor protein (APP) by two proteases, beta and gamma secretases. […] To understand further this biology and its potential therapeutic implications for human neurodegenerative disease, a quantitative high-throughput screen for compounds that reverse the cellular toxicity of the A-beta peptide was developed. […]
The source made the active and inactive calls. Calls follow the shape of the dose curve; as a rule, active = well fitted curve in the direction sought with a large enough effect; inconclusive = small, poorly fitted or top-dose-only effect, or another doubt; inactive = no such curve, though single readings can be large or run the other way.
readout-type: outcome

Reference set, count: 4
* NC(=O)C(=O)O | inactive
* O=C(O)c1cc([N+](=O)[O-])ccc1NCCCc1ccccc1 | inactive
* OCC1O[C@H](O)C(Cl)C(O)C1O (some centres not stated) | inactive
* CNCC[C@H](Oc1ccc(C(F)(F)F)cc1)c1ccccc1 | inactive

# query: outcome of entry CCCCCCCCc1ccc(-c2ccc(C(=O)O)cc2)cc1
inactive

Fill in: outcome of COc1ccccc1CNCCCCCCNCCCCCCCCNCCCCCCNCc1ccccc1OC is ___
inactive

Given the compound Cc1ccc(C(=O)O[C@H](C(=O)O)[C@@H](OC(=O)c2ccc(C)cc2)C(=O)O)cc1 (tested in a mixture with another compound) , what is its reported outcome?
inactive

====

protocol-summary: Cell Viability - LYMP1-002 - Assay at 24 hr (AID 993)
protocol-conditions: LYMP1-002 lymphoblastoid cells viability; series mostly up to 92.2 µM
Active and inactive are the calls of the source. Calls come from the whole dose curve; as a rule, active = well fitted cell-killing curve with a large enough effect; inconclusive = small, poorly fitted or top-dose-only effect; inactive = flat fitted curve, though single readings scatter.
Log the outcome using a class from T for active, F for inactive

Completed entries (count: 5):
• COc1cc(/C=C/C(=O)CC(=O)/C=C/c2ccc(O)c(OC)c2)ccc1O = T
• CCCOC(=O)c1ccc(O)cc1 = F
• CCCCCCCCCCCCCCCCCC(=O)O = F
• Nc1ccc(O)c([N+](=O)[O-])c1 = F
• O=c1cc(-c2ccccc2)oc2ccccc12 = F

Tell me the assay call for Nc1nc2ccc([N+](=O)[O-])cc2s1 please.
F

Hi, sorry to bother you, what did the test record for CN(C)c1ccc(C(=C2C=CC(=[N+](C)C)C=C2)c2ccccc2)cc1 ?
T

Tell me the assay call for COc1cc(CNC(=O)CCCC/C=C/C(C)C)ccc1O please.
F

====

System: JCK
protocol-summary: qHTS profiling for inhibitors of Plasmodium falciparum proliferation (AID 504749); also: nearly all actives have a fitted effect of over 60% in size
protocol-conditions: P. falciparum in erythrocytes, SYBR Green DNA, 72 h; series mostly up to 28.7 µM
Procedure: NIH National Institute of Allergy and Infectious Diseases [NIAID] NIH Chemical Genomics Center [NCGC] […] Because mature erythrocytes lack DNA, only Plasmodium-derived DNA is detected. NCGC Assay Protocol Summary: The SYBR Green viability assay was adapted from a method described previously (Plouffe et al., 2008). […] The following morning, fluorescence intensity at 485(14) nm excitation and 535(25) nm emission wavelengths was measured on an EnVision (Perkin Elmer) plate reader. […]
Records with an inconclusive call do not appear. Active and inactive are the calls of the source. Calls follow the shape of the dose curve; as a rule, active = well fitted inhibition curve with a large enough effect; inconclusive = small, poorly fitted or top-dose-only effect; inactive = flat fitted curve, though single readings scatter.
Outcomes you can answer with include only these: 1 (yes) (active), 0 (no) (inactive)

Worked cases, answers included:
* O=C1CN(/N=C/c2ccc(-c3ccc([N+](=O)[O-])cc3)o2)C(=O)N1 | 0 (no)
* [O-][n+]1ccccc1SSc1cccc[n+]1[O-] | 1 (yes)
* Cc1ccccc1CNc1ncnc2c1ncn2C1OC(CO)C(O)C1O (configuration not stated) | 0 (no)
* CC1OC1P(=O)(O)O (configuration not stated) | 0 (no)
* N=c1ccn2c(n1)O[C@H]1[C@H](O)[C@@H](CO)O[C@H]12 | 0 (no)
* CCCOC(=O)c1ccc(O)cc1 | 0 (no)

Per the assay record, what outcome was assigned to O=C(OCc1ccccc1)c1ccccc1 ?
0 (no)

Query: recorded result category for C#C[C@]1(O)CC[C@H]2[C@@H]3CCc4cc(O)ccc4[C@H]3CC[C@@]21C in this test
0 (no)

Record lookup: outcome of this test for Oc1c(Br)cc(Br)c2cccnc12 ?
0 (no)

Record lookup: outcome of this test for CC(=O)[C@]1(O)Cc2c(O)c3c(c(O)c2[C@@H](O[C@H]2C[C@H](N)[C@H](O)[C@H](C)O2)C1)C(=O)c1c(O)cccc1C3=O ?
1 (yes)

Call for entry CN(C)c1ccc(C(=C2C=CC(=[N+](C)C)C=C2)c2ccccc2)cc1 :
0 (no)

Test call for this molecule, please: NC(=O)C(c1ccccc1)(c1ccccc1)[C@@H]1CCN(CCc2ccc3c(c2)CCO3)C1
0 (no)

====

protocol-summary: qHTS of pediatric cancer cell lines to identify multiple opportunities for drug repurposing: Confirmatory screen for Rh41 cells (AID 1347123);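 also: 48 h compound exposure; nearly all actives have a fitted effect of over 60% in size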
protocol-conditions: Rh41 rhabdomyosarcoma cells, viability/cytotoxicity qHTS; series mostly up to 97.2 µM
Results filed as inconclusive are left out. The source made the active and inactive calls. Calls follow the shape of the dose curve; as a rule, active = well fitted cell-killing curve with a large enough effect; inconclusive = small, poorly fitted or top-dose-only effect; inactive = no such curve, though single readings can be large or run the other way.
# output must be one of 1 = active, 0 = inactive

Sample answers from the record:
* COc1cccc2c1C(=O)c1c(O)c3c(c(O)c1C2=O)C[C@@](O)(C(=O)CO)C[C@@H]3O[C@H]1C[C@H](N)[C@H](O[C@@H]2CCCCO2)[C@H](C)O1 | 1
* N=C1N=C(N)c2cc3ccccc3cc21 | 1
* CCCSc1ccc2nc(NC(=O)OC)[nH]c2c1 | 1

Tell me the assay call for Nc1ccc([N+](=O)[O-])cc1O please.
0

====

Test system: AA1029
protocol-summary: qHTS profiling for inhibitors of Plasmodium falciparum proliferation (AID 504749); also: nearly all actives have a fitted effect of over 60% in size
protocol-conditions: P. falciparum in erythrocytes, SYBR Green DNA, 72 h; series mostly up to 28.7 µM
Records with an inconclusive call do not appear. Activity calls are given as the source filed them. Calls come from the whole dose curve; as a rule, active = well fitted inhibition curve with a large enough effect; inconclusive = small, poorly fitted or top-dose-only effect; inactive = flat fitted curve, though single readings scatter. Where a SMILES comes first, the peptide text is derived from it. [ ]: non-standard residue; d: D form. pGlu = O=C1CC[C@@H](C(=O)O)N1; Thz = O=C(O)[C@@H]1CSCN1
Use one of these outcomes when replying: active, inactive

The examples below pair each entry with its known result.
• O=C(/C=C/c1ccccc1)NCCO = inactive
• Oc1c(Br)cc(Br)c2cccnc12 = inactive
• O=C1CC[C@@H](C(=O)N2CSC[C@H]2C(=O)O)N1 ([pGlu]-[Thz]-OH) = inactive
• COc1ccc(-c2cc(=S)ss2)cc1 = inactive
• C=C(Nc1ccc(OCC)cc1)Nc1ccc(OCC)cc1 = inactive
• COc1cc2c3cc1Oc1cc(ccc1O)C[C@@H]1c4c(cc(OC)c(O)c4Oc4ccc(cc4)C[C@@H]3N(C)CC2)CC[N+]1(C)C = inactive
• O=C(O)c1cc(O)c(O)c(O)c1 = inactive
• CC(=O)[C@]1(O)Cc2c(O)c3c(c(O)c2[C@@H](O[C@H]2C[C@H](N)[C@H](O)[C@H](C)O2)C1)C(=O)c1c(O)cccc1C3=O = active
• O=C(O)COc1ccc(C(=O)c2cccs2)c(Cl)c1Cl = inactive
• O=C(Nc1ccc(C(=O)O)c(O)c1)c1ccccc1 = inactive

Lab log entry: COc1cc(/C=C/C(=O)N2CCN(CC(=O)N3CCCC3)CC2)cc(OC)c1OC — outcome as called in the assay?
inactive

Kindly provide the recorded test outcome for the following compound: C=CCCCCCCCCC(=O)O
inactive

State the result this test recorded for [O-][n+]1ccccc1SSc1cccc[n+]1[O-] .
active

Hi, do you know how O=C(O)[C@H](CC(=O)N1C[C@H]2CCCC[C@H]2C1)Cc1ccccc1 came out in this test?
inactive

How did this test come out for COc1ccc(/C=C/C(=O)Nc2ccccc2C(=O)O)cc1OC ?
inactive

In this assay, the call recorded for CC1(C)C[C@@H]1C(=O)N/C(=C\CCCCSC[C@H](N)C(=O)O)C(=O)O was what?
inactive

Recorded test call requested for O=C(O)Cc1ccc(-c2ccccc2)cc1
inactive

What call does the record list for Nc1ccc(C(=O)O)c(O)c1 ?
inactive

====

protocol-summary: qHTS of pediatric cancer cell lines to identify multiple opportunities for drug repurposing: Primary screen for BT-12 cells (AID 1347101); also: nearly all actives have a fitted effect of over 25% in size
protocol-conditions: BT-12 viability, CellTiter-Glo luminescence, 48 h; series mostly up to 57.3 µM
Protocol: Drug repurposing or repositioning has been offered as a strategy for drug development in oncology programs. […] [1] Shen, M et al. Quantitative high-throughput phenotypic screening of pediatric cancer cell lines identifies multiple opportunities for drug repurposing. […] Cells were assayed in growth media at a density of 500-1,000 cells/well. […] After a 15 min incubation at room temperature, samples were analyzed for luminescence intensity using a ViewLux High-throughput CCD imager equipped with clear filters.
Results filed as inconclusive are left out. The source made the active and inactive calls. Calls come from the whole dose curve; as a rule, active = well fitted cell-killing curve with a large enough effect; inconclusive = small, poorly fitted or top-dose-only effect; inactive = flat fitted curve, though single readings scatter.
The categories you may choose from are class 1 for active, class 0 for inactive

Below, 6 compounds whose answers are already recorded.
* CNC(=O)c1c(I)c(NC(=O)CCCCC(=O)Nc2c(I)c(C(=O)O)c(I)c(C(=O)NC)c2I)c(I)c(C(=O)O)c1I | class 0
* CC1(C)S[C@@H]2[C@H](NC(=O)[C@H](N)c3ccccc3)C(=O)N2[C@H]1C(=O)O | class 0
* CCCCCCCCCCCCOCCO | class 0
* Cc1ccc2c(n1)Oc1ccc(C(C)C(=O)OCC(=O)N(C)C)cc1C2 (stereo not drawn) | class 0
* N=C1N=C(N)c2cc3ccccc3cc21 | class 1
* Nc1ccc(C(=O)O)c(O)c1 | class 0

Let us examine a further case.
Assay outcome for Nc1c(CC(=O)O)cccc1C(=O)c1ccc(Br)cc1 : what was it?
class 0
